Data provenance: patent US9944635B2

method summary: Metabolic stability in human liver microsomes (in vitro half-life)
Type: in vitro ADME
cond: pH 7.4, Table 2, average of runs 5-8, read-out: t1/2 AVE ± SD
measured property: half-life at 1 μM (min)
One number for each entry, in min.

Reference set, count: 3
[2H]C1([2H])C([2H])([2H])C([2H])([2H])C([2H])(C(=O)N2CC(=O)N3CCc4ccccc4C3C2)C([2H])([2H])C1([2H])[2H] (stereo not shown) | 50.7
[2H]C1([2H])CC(C(=O)N2CC(=O)N3CCc4ccccc4C3C2)CC([2H])([2H])C1([2H])[2H] (stereo not shown) | 52.2
[2H]C1([2H])CCC(C(=O)N2CC(=O)N3CCc4ccccc4C3C2)CC1 (stereo not shown) | 52.2

Turning now to a further record.
The compound listed as [2H]C1([2H])C(C(=O)N2CC(=O)N3CCc4ccccc4C3C2)C([2H])([2H])C([2H])([2H])C([2H])([2H])C1([2H])[2H] (stereo not shown) shows half-life at 1 μM equal to 61.7

----------
method summary: Metabolic stability in human liver microsomes (in vitro half-life)
Format: in vitro ADME
cond: pH 7.4, Table 1, 0.5 mg/mL HLM, 1.0 μM test compound, 2 mM NADPH, 37° C., read-out: t1/2 Run No. 4
measured property: half-life at 1 μM (min)
Answers are plain numbers, in min.

O=C(C1CCCCC1)N1CC(=O)N2CCc3ccccc3C2C1 (stereo not drawn) [Praziquantel, reference compound] | 44.7

Hello, I would appreciate it if you could give half-life at 1 μM for each entry below.
1. [2H]C1([2H])CCC(C(=O)N2CC(=O)N3CCc4ccccc4C3C2)CC1 (stereo not drawn)
2. [2H]C1([2H])C([2H])([2H])C([2H])([2H])C([2H])(C(=O)N2CC(=O)N3CCc4ccccc4C3C2)C([2H])([2H])C1([2H])[2H] (stereo not drawn)

Ans:
52.7
66.2

----------
method summary: Metabolic stability in human liver microsomes (in vitro half-life)
Type: in vitro ADME
cond: pH 7.4, Table 2, 0.5 mg/mL HLM, 1.0 μM test compound, 2 mM NADPH, 37° C., read-out: t1/2 Run No. 7
measured property: half-life at 1 μM (min)
Give bare numbers, in min.

O=C(C1CCCCC1)N1CC(=O)N2CCc3ccccc3C2C1 (stereo not shown) [Praziquantel, reference compound] | 30.6
[2H]C1([2H])CC(C(=O)N2CC(=O)N3CCc4ccccc4C3C2)CC([2H])([2H])C1([2H])[2H] (stereo not shown) [Compound 109] | 46.4
[2H]C1([2H])C([2H])([2H])C([2H])([2H])C([2H])(C(=O)N2CC(=O)N3CCc4ccccc4C3C2)C([2H])([2H])C1([2H])[2H] (stereo not shown) [Compound 102] | 44.9

The molecule listed as [2H]C1([2H])C(C(=O)N2CC(=O)N3CCc4ccccc4C3C2)C([2H])([2H])C([2H])([2H])C([2H])([2H])C1([2H])[2H] (stereo not shown) [Compound 103] shows half-life at 1 μM equal to 60.6

----------
method summary: Metabolic stability in human liver microsomes (in vitro half-life)
Format: in vitro ADME
cond: pH 7.4, Table 1, average of runs 1-4, read-out: t1/2 AVE ± SD
measured property: half-life at 1 μM (min)
Numbers only, in min.

Reference set, count: 2
O=C(C1CCCCC1)N1CC(=O)N2CCc3ccccc3C2C1 (stereo not drawn) [Praziquantel, reference compound] | 38.9
[2H]C1([2H])CCC(C(=O)N2CC(=O)N3CCc4ccccc4C3C2)CC1 (stereo not drawn) | 46.7

Turning now to a further record.
The compound listed as [2H]C1([2H])C([2H])([2H])C([2H])([2H])C([2H])(C(=O)N2CC(=O)N3CCc4ccccc4C3C2)C([2H])([2H])C1([2H])[2H] (stereo not drawn) shows half-life at 1 μM equal to 55.7
